# GI50 values compiled below
system: HOP-62; assay: NCI tumour cell line growth inhibition, 48 h
Activity calls are given as the source filed them. Rule as the data show it: active = GI50 up to about 1.1 µM and inactive = higher.

Completed entries (count: 4):
MOLECULE | GI50
Cc1coc2c1CC1(C)C(CCC(O)C1C)C2 (configuration not stated) | > 100 µM (inactive)
CCNc1nnc(-c2ccccc2Nc2ccccc2-c2nnc(NCC)s2)s1 | 22.2 µM (inactive)
O=C1/C(=C/c2ccc(Br)cc2)CCC/C1=C\c1ccc(Br)cc1 | 20 µM (inactive)
Cc1ccccc1NC(=O)C1C(=O)N(c2ccccc2C)C(=O)/C1=N\N (configuration not stated) | > 100 µM (inactive)

Which measured GI50 belongs to COc1cc(C2SC(C)C(=O)N2c2ccc(-c3csc(NS(=O)(=O)c4ccc(Cl)c(OC)c4)n3)cc2)ccc1O (configuration not stated) , tested on HOP-62?
> 100 µM (inactive)

Which measured GI50 belongs to O=[N+]([O-])c1ccccc1[S+]([O-])c1ccccc1 (configuration not stated) , tested on HOP-62?
> 100 µM (inactive)

Which measured GI50 belongs to NCCOc1ccc(/C(=C(/Cl)c2ccccc2)c2ccccc2)cc1 , tested on HOP-62?
17.9 µM (inactive)
